Values were extracted from the supplement of paper PMC10065799.

Target: MERTK (UniProt Q12866)
Sequence (Q12866 whole entry, looked up): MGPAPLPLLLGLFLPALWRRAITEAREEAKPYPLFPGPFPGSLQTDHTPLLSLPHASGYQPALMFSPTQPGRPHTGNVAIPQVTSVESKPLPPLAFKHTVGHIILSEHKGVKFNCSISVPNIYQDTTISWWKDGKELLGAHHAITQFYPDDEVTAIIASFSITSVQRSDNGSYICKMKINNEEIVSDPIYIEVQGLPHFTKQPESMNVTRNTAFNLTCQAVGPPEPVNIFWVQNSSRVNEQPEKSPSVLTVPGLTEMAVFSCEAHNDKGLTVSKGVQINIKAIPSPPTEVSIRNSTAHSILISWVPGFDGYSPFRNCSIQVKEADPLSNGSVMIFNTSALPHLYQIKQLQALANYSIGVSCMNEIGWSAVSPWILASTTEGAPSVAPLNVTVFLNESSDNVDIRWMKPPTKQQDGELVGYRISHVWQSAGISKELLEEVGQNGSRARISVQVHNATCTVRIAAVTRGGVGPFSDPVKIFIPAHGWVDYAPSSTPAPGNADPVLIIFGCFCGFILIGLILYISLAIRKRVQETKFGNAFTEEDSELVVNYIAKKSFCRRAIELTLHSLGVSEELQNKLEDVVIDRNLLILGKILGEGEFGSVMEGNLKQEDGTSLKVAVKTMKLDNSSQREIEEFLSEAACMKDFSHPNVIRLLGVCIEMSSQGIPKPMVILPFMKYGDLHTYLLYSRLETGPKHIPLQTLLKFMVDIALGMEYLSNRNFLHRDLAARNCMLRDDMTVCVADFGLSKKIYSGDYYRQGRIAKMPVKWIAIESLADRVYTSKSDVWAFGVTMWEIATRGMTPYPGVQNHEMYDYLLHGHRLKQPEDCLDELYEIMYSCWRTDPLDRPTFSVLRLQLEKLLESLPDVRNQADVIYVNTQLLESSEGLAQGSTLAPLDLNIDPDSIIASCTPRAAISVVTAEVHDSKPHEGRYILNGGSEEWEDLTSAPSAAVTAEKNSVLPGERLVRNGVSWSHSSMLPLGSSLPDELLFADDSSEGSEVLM
Assay: phosphorylation enrichment, bacterial display (enrichment ratio); higher = better substrate or ligand; peptides without Tyr show the background;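 also: 11-residue human phosphosite peptides and single-mutation variants displayed on the E. coli surface, counted by deep sequencing, each peptide's frequency after selection divided by its frequency in the unselected input library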;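 also: frequency after pTyr selection over input frequency; kinase dosed for 20-30% of maximal phosphorylation in three min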
endpoint: phosphorylation enrichment
Answer as a number with no unit attached.

Solved entries (count: 10):
VHSGTYQVTVC [MYBPC3_Y1043_R1048C]
0.575
EERNTYVNTTL [TEK_Y1102_K1100N]
0.675
TLQIMYGCDVG [HLA-A_Y123_I119L]
0.459
NRNVRYLTLDI [AKR1C2_Y305]
0.497
FKDGQYWIRGQ [ACSF3_Y466_R471Q]
0.385
GCRSKSVGLWG [KCNQ1_Y184_Y184S]
0.389
NLGQQYNSPQE [UMPS_Y432]
0.413
MEFLPYGSLRD [JAK2_Y934_YF]
0.388
VKPENYRRLDI [VHL_Y175]
0.337
IRKKYYRAILE [CHD7_Y1218_Q1214R]
0.508

// lookup phosphorylation enrichment for RLGVTYEQALA [MAP2_Y996_G991R]
0.737

Now consider SIKDKYVTALY [KCNH2_Y611] and answer again.
0.506

Now consider AVDDKYSRREE [SART1_Y685_I681V] and answer again.
0.426

###

Target: Fes (UniProt P07332)
Sequence (P07332 whole entry, looked up): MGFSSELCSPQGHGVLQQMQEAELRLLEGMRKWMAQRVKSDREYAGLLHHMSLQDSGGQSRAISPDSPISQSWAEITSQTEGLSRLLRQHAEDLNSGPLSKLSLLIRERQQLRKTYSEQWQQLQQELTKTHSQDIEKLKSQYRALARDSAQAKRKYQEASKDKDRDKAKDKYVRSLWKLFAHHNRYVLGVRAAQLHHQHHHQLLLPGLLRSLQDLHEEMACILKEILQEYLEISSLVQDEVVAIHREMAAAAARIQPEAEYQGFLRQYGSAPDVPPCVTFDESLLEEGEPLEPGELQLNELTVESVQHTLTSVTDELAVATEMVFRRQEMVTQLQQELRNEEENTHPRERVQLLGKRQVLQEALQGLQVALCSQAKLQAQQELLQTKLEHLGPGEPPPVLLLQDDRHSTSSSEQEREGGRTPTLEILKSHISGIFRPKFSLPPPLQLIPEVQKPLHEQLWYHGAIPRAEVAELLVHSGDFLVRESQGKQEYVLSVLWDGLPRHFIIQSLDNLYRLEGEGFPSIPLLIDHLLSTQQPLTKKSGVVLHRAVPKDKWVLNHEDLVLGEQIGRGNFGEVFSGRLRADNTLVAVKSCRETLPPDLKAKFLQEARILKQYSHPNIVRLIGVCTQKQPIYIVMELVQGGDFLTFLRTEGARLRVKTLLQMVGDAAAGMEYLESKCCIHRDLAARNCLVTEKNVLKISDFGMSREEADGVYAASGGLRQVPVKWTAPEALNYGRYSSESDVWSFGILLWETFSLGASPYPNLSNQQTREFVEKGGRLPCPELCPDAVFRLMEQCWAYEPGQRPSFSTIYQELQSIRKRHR
Assay: phosphorylation enrichment, bacterial display (enrichment ratio); higher = better substrate or ligand; peptides without Tyr show the background
endpoint: phosphorylation enrichment

Solved entries (count: 3):
MKDLTYASLCF [ALOX5_Y446]
1.33
DTQNSYRCATS [TSC1_Y304_G305R]
0.726
GGSSPYSRRLP [CDK13_Y351]
0.501

Entry LQKNIYSEELR [LMNA_Y211_F206L] , system Fes (UniProt P07332): what phosphorylation enrichment was measured?
1.39

Now consider EELLHYAIVTP [POC5_Y37] and answer again.
1.24

Now consider LNCDRYSAGLL [PDE6A_Y275_V277A] and answer again.
0.834

Now consider TEFIQYMRRKN [MAX_Y73_YF] and answer again.
0.629

Now consider GEFHVYRHLRR [PRKRIP1_Y82] and answer again.
0.863

###

Tested on: c-Abl (mouse)
Assay: phosphorylation enrichment, bacterial display (enrichment ratio); higher = better substrate or ligand; peptides without Tyr show the background
endpoint: phosphorylation enrichment
Answer as a number with no unit attached.

Solved entries (count: 5):
VLICAYLLHRG [PTEN_Y138_M134L]
0.833
NEKNIYRVPLM [BMPR2_Y247]
31.2
ETAENYLGYTA [HSPA9_Y181_H184Y]
0.691
LGRTVYADCLA [ABCA4_Y2063_L2060R]
1.39
CTTIHFNFMCN [TP53_Y234_Y234F_YF]
0.824

Let us move to another entry and its phosphorylation enrichment.
// lookup phosphorylation enrichment for RALRHYFKLNI [ETV6_Y401_YF]
0.594

###

System: Fer (mouse)
Assay: phosphorylation enrichment, bacterial display (enrichment ratio); higher = better substrate or ligand; peptides without Tyr show the background
# cutoff 0.5 applies to phosphorylation enrichment; >= gives rule met, < gives rule not met

Solved cases (6 shown):
GEEIKYMLWLL [OTC_Y55_S60L]
rule met
KLIETYSSKNY [PLP1_Y50_F51S]
rule not met
LKLIQYHLTQQ [AKAP4_Y554]
rule met
CDKEYYSVHNK [MET_Y1235_Y1230C]
rule met
EDEGLYTVRVP [MYOM3_Y343_M344T]
rule met
GCRSKSVGLWG [KCNQ1_Y184_Y184S]
rule not met

Item GLIPAYHRFIM [NMNAT1_Y64_V67F] with phosphorylation enrichment of 0.5 or above?
rule not met

Now consider MEKEKYVSYIS [JMJD1C_Y596] and answer again.
rule not met

Now consider AMCVCYDGVEV [ADAMTSL2_Y594_R593C] and answer again.
rule met

Now consider SVTWTYSPALN [TP53_Y126_C124W] and answer again.
rule met

###

Molecular target: Hck (UniProt P08631)
Test: phosphorylation enrichment, bacterial display (enrichment ratio); higher = better substrate or ligand; peptides without Tyr show the background
# cutoff 0.5 applies to phosphorylation enrichment; >= gives MET, < gives NOT MET

Solved cases (5 shown):
EELLHYAIVTP [POC5_Y37]
MET
VLSIDYYFPPQ [AR_Y552_P549S]
MET
NMSRIYSTTKV [ACE_Y151_A154T]
NOT MET
TEFIQYMRRKN [MAX_Y73_YF]
NOT MET
RSAGKYDVYFI [MECP2_Y120_L124F]
MET

Item RRIHSYRCHLW [VHL_Y112_G114C] with phosphorylation enrichment of 0.5 or above?
MET

Now consider AVLALHNSTRD [TGFB1_Y81_Y81H] and answer again.
NOT MET

Now consider RCKSHYAAFSV [C1QTNF1_Y145] and answer again.
MET

###

Target: EPHB1 (UniProt P54762)
Sequence (P54762 whole entry, looked up): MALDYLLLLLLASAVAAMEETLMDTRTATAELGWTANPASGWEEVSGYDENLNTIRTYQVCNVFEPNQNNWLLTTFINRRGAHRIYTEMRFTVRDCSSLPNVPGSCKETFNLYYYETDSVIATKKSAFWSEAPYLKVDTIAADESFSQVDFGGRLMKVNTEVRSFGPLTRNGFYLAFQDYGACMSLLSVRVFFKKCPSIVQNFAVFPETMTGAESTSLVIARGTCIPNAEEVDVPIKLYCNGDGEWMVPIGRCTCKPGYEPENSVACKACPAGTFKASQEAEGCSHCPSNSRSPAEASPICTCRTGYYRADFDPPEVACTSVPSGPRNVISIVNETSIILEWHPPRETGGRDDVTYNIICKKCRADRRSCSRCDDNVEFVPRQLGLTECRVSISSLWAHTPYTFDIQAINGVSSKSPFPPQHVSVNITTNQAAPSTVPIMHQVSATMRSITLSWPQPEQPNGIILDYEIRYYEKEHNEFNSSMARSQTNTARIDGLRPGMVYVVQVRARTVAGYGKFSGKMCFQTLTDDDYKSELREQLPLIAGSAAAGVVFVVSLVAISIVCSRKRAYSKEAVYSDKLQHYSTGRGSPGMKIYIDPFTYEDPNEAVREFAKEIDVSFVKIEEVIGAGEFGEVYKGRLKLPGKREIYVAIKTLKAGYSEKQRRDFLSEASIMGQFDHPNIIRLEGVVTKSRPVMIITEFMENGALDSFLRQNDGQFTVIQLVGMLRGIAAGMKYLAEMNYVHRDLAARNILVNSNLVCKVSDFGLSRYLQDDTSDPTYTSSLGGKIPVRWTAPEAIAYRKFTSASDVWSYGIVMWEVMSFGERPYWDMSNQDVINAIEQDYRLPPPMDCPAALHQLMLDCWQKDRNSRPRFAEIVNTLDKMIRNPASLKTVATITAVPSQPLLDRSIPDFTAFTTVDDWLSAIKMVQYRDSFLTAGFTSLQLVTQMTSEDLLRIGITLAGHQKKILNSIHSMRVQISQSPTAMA
Test: phosphorylation enrichment, bacterial display (enrichment ratio); higher = better substrate or ligand; peptides without Tyr show the background
As shown below, each of these sequences has a reported phosphorylation enrichment value.
Answer as a number with no unit attached.

ANAFIYDVQLP [L1CAM_Y420_V421D_YF]
1.69
TDLAYYLVCKG [ASL_Y376_R379C]
0.883

Entry FATAGYGSLEA [EPHA10_Y959_A956T] , system EPHB1 (UniProt P54762): what phosphorylation enrichment was measured?
0.368

Now consider LITLVYGCSRQ [TMPRSS6_Y290_S288L] and answer again.
0.644

Now consider FQKDVYDIPPS [NEDD9_Y177_YF] and answer again.
0.681

Now consider CTTLHYNYMCN [TP53_Y234_I232L] and answer again.
0.808

Now consider QDGFSYLSRQM [LDLR_Y847_P848L_YF] and answer again.
0.584

###

Target: Hck (UniProt P08631)
Experiment: phosphorylation enrichment, bacterial display (enrichment ratio); higher = better substrate or ligand; peptides without Tyr show the background
endpoint: phosphorylation enrichment

Solved entries (count: 3):
CITIHYNYMCN [TP53_Y234_T230I]
0.44
SIKDKYVMALF [KCNH2_Y611_T613M_YF]
0.496
QDGFSYLSRQM [LDLR_Y847_P848L_YF]
0.748

Entry ILGRTHYVNHE [NEDD4_Y627_Y627H] , system Hck (UniProt P08631): what phosphorylation enrichment was measured?
0.318

###

Target: FGFR3 (UniProt P22607)
Sequence (P22607 whole entry, looked up): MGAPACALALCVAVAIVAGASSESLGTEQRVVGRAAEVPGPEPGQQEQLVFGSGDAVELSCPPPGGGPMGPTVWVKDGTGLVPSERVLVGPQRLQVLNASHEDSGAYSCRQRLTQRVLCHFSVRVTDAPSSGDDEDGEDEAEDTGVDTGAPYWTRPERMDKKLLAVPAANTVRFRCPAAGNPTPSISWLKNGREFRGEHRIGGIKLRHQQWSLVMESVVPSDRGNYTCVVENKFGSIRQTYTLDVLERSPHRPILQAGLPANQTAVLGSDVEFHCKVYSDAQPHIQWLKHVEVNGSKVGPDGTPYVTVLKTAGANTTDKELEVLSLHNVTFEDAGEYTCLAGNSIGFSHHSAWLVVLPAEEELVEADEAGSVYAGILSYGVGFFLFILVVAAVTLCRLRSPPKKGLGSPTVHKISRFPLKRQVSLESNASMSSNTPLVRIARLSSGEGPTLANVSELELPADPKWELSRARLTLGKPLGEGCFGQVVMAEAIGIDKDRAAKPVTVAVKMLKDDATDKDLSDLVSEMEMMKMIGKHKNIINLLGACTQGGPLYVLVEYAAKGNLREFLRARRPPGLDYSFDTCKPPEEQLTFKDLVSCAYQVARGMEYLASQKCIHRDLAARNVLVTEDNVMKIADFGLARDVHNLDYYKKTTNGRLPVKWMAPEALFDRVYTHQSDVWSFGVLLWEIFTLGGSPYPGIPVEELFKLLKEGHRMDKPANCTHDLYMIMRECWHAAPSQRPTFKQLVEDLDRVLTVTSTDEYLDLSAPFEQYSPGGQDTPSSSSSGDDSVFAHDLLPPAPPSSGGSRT
Experiment: phosphorylation enrichment, bacterial display (enrichment ratio); higher = better substrate or ligand; peptides without Tyr show the background
As shown below, each of these sequences has a reported phosphorylation enrichment value.
Answer as a number with no unit attached.

Solved entries (count: 5):
ESAAIYNPVIY [RHO_Y301_K296E]
1.88
VGTKRYVAPEV [ACVRL1_Y375_M376V]
0.464
FARECYSALPQ [SARS2_Y52_G51C_YF]
1.06
FIATQYSLRPR [LBR_Y166_YF]
0.471
LSVISYDLGMF [GBA3_Y174_M172I]
0.581

// lookup phosphorylation enrichment for SKHHLYSDLQT [PTCHD1_Y84_R82H]
0.589

Now consider IRTDAYVPAMT [RPE65_Y89_R91P] and answer again.
0.455

Now consider VDASFYGGRGV [ANTXR2_Y381_YF] and answer again.
0.463

Now consider VLSIDYYFPPQ [AR_Y552_P549S] and answer again.
10.8

Now consider FKPENYRRLDI [VHL_Y175_V170F] and answer again.
0.544

Now consider GIVEDYRPTFF [ACVRL1_Y421_P424T_YF] and answer again.
0.651

Now consider KSLFHYRQYSA [CPS1_Y1491] and answer again.
0.646

###

Biological target: EPHB2 (UniProt P29323)
Sequence (P29323 whole entry, looked up): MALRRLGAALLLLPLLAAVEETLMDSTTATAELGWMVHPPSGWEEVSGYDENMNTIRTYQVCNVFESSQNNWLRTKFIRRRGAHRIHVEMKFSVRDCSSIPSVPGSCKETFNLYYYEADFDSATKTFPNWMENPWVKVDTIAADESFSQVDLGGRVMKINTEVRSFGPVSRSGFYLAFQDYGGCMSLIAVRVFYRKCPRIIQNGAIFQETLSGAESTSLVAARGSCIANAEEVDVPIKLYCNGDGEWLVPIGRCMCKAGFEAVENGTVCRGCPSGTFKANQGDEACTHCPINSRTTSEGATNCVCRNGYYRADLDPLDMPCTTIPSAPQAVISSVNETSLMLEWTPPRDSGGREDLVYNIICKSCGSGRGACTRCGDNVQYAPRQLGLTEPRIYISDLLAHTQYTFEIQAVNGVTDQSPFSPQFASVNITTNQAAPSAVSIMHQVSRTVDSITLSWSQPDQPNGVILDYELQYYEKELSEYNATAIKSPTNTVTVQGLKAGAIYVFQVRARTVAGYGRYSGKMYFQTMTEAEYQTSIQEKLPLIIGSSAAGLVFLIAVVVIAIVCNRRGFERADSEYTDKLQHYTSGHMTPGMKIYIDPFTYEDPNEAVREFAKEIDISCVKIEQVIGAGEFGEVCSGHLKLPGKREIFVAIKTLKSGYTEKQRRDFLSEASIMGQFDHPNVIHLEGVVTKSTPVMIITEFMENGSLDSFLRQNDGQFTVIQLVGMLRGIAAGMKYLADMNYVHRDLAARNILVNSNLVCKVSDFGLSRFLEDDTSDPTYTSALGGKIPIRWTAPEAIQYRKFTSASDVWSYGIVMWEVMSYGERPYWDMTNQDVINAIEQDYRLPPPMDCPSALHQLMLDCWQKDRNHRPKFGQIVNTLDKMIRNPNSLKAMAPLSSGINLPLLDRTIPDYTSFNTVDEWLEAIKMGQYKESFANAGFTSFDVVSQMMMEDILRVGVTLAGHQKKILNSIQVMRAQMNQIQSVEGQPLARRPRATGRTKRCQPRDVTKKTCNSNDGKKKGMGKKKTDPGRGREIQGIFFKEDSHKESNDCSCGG
Experiment: phosphorylation enrichment, bacterial display (enrichment ratio); higher = better substrate or ligand; peptides without Tyr show the background
As shown below, each of these sequences has a reported phosphorylation enrichment value.
Answer as a number with no unit attached.

Solved entries (count: 5):
YLQEIYNSNNQ [FGG_Y140]
0.561
PGVNYYFRVSA
0.706
GLDGSYLLRFS [SH2D1A_Y29_D33Y_YF]
0.518
DVQNAYDSNHC [ZFYVE16_Y36]
0.495
TKVVHYWKWIK [KLK2_Y249_R250W]
0.364

Entry VDASFYGGRGV [ANTXR2_Y381_YF] , system EPHB2 (UniProt P29323): what phosphorylation enrichment was measured?
0.338

Now consider PFSEPYADFGG [APBA1_Y187_YF] and answer again.
0.488

Now consider IRKKYYRAILE [CHD7_Y1218_Q1214R] and answer again.
0.362
